Test: Solubility to methyl ethyl ketone
Assay type: physicochemical
Conditions: Solvent: Methyl Ethyl Ketone
Please provide measured Solubility for the entries that follow.
Answers are plain numbers, in wt %.

[[record]]
molecule = "O=P(OB1n2c3c4ccccc4c2/N=C2N=C(/N=c4/c5ccccc5c(n41)=N3)c1ccccc1\\2)(c1ccccc1)c1ccccc1 [Compound 1, SubPcBOPOPh2]"
result_unit = "wt %"
test_value = 0.44

[[record]]
molecule = "O=P(OB1n2c3c4ccccc4c2/N=C2N=C(/N=c4/c5ccccc5c(n41)=N3)c1ccccc1\\2)(Oc1ccccc1)Oc1ccccc1 [Compound 3, SubPcBOPO(OPh)2]"
result_unit = "wt %"
test_value = 0.34


Query molecule follows.
I am curious: what Solubility value has been reported for ClB1n2c3c4ccccc4c2/N=C2N=C(/N=c4/c5ccccc5c(n41)=N3)c1ccccc1\2 [Intermediate Compound 1, SubPcBCl, reference compound] ?
0.003
